For each of the binders below, state its EC50 (cAMP).
Molecular target: T1, human GIP receptor (human, UniProt P48546 22-466)
T1 sequence (looked up): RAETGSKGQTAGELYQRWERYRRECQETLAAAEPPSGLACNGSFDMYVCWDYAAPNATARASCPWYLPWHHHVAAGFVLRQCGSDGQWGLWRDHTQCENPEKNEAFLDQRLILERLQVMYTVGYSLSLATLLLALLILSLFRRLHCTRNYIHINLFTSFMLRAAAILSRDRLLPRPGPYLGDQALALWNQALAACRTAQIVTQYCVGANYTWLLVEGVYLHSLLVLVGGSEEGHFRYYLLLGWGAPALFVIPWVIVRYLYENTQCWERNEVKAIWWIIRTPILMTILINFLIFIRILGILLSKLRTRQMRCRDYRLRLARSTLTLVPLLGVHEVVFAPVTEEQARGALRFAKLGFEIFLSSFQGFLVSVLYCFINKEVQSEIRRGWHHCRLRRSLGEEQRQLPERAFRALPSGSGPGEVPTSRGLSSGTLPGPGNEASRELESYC
Test: cell-based or functional assay
Ends that are not written are not given here. * marks the point of attachment. Palmitoyl = CCCCCCCCCCCCCCCC(=O)*; Lauroyl = CCCCCCCCCCCC(=O)*

Known EC50 (cAMP) results, listed for orientation:
binder	result
HADGTFISDYSTILDNLAARDFINWLIQTKITK (C16 acyl group on Lys 33 (K(c16/33), 'with C16 pos 33')) [GIP-GLP-2 co-agonist 33]	0.32 nM
HADGTFISDYSTILDNLAARDFINWLIQTKGK(Palmitoyl)K [GIP-GLP-2 co-agonist 36]	0.79 nM
HADGTFISDYSTILDNLAARDFINWLIQTKGKKNDWKHNITQ [GIP-GLP-2 co-agonist 34]	0.1 nM
HADGTFISDYSTIKDNLAARDFINWLIQTKITK [GIP-GLP-2 co-agonist 25]	0.44 nM

Batch request: EC50 (cAMP) for each of the following binders.
1. HADGTFSSDYSTILDNLAARDFINWLIQTKITD (not fully specified (residue 1, N-terminus); also: C16 acyl group on His 1 (attachment site not given here)) [GIP-GLP-2 co-agonist 22]
2. HADGTFISDYSTILDNLAARDFINWLIQTK(Palmitoyl)ITK [GIP-GLP-2 co-agonist 31]

0.41 nM
1.7 nM

Would you mind listing EC50 (cAMP) for each of the following binders?
1. HADGTFISDYSKILDNLAARDFINWLIQTKITK [GIP-GLP-2 co-agonist 24]
2. HADGTFSSDYSTILDNLAAK(Palmitoyl)DFINWLIQTKITD [GIP-GLP-2 co-agonist 21]
3. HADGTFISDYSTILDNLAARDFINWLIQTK(Lauroyl)ITK [GIP-GLP-2 co-agonist 30]
4. HADGTFSSDYSTILDNLAARDFINWLIQTK(Palmitoyl)ITD [GIP-GLP-2 co-agonist 23]
5. HADGTFISDYSTILDKLAARDFINWLIQTKITK [GIP-GLP-2 co-agonist 26]

1. 0.15 nM
2. 34 nM
3. 0.63 nM
4. 0.76 nM
5. 0.03 nM

The recorded EC50 (cAMP) for HADGTFISDYSTILDNLAAKDFINWLIQTKITK [GIP-GLP-2 co-agonist 28] is 0.2 nM
